# Average Area Under the Viability Curve (AUC), AUC norm value per entry
- Test system: MKN28
- methodDescription: Cell viability drug screen, 12-point dose-response AUC
- Assay type: cell-based, human
- settings: MKN28 cells; 72 hours
// keep it numeric: no unit symbol after the value

Worked examples follow.
CC[C@@H]1C(=O)N(C)c2cnc(Nc3ccc(C(=O)N[C@H]4CC[C@H](N5CCN(CC6CC6)CC5)CC4)cc3OC)nc2N1C(C)C [BI6727 (Volasertib), Volasertib] | −1.335
Nc1ccn([C@@H]2O[C@H](CO)[C@@H](O)C2(F)F)c(=O)n1 [Gemcitabine (Gemzar), Gemcitabine] | 1.089

Problem: Report Average Area Under the Viability Curve (AUC), AUC norm value for O=C(/C=C/c1cccnc1)NCCCCC1CCN(C(=O)c2ccccc2)CC1 [APO866 (FK866), APO866] tested on MKN28.
Solution: −6.855

Problem: Fill in the recorded Average Area Under the Viability Curve (AUC), AUC norm value for this compound, with MKN28 as test system: O=C(CCCCCCC(=O)Nc1ccccc1)NO [Vorinostat (SAHA), Vorinostat]
Solution: −0.08142
